system: hepatocellular carcinoma (HepG2) cells; test: Antiproliferative MTT assay, HepG2; format: cell-based, human; settings: Homo sapiens, HepG2, 72 h, 72 h incubation, MTT; mean ± SD
quantity name: IC50 (µM)

In the examples that follow, each entry is paired with its recorded IC50.
[
  {
    "compound": "OC(Cn1cc(Cn2ccc3c(Cl)ncnc32)nn1)c1ccc(Cl)cc1 (stereo not drawn) [Compound 43b]",
    "target system": "hepatocellular carcinoma (HepG2) cells",
    "IC50 (µM)": 46
  },
  {
    "compound": "OC(Cn1cc(Cn2ccc3c(Cl)ncnc32)nn1)c1ccc(C(F)(F)F)cc1 (stereo not drawn) [Compound 45b]",
    "target system": "hepatocellular carcinoma (HepG2) cells",
    "IC50 (µM)": 32
  },
  {
    "compound": "OCC(c1ccc(Cl)cc1)n1cc(Cn2ccc3c(Cl)ncnc32)nn1 (stereo not drawn) [Compound 43a]",
    "target system": "hepatocellular carcinoma (HepG2) cells",
    "IC50 (µM)": 33
  },
  {
    "compound": "OC(Cn1cc(Cn2ccc3ccccc32)nn1)c1ccc(C(F)(F)F)cc1 (stereo not drawn) [Compound 30b]",
    "target system": "hepatocellular carcinoma (HepG2) cells",
    "IC50 (µM)": 65
  },
  {
    "compound": "OC(Cn1cc(Cn2ccc3c(Cl)ncnc32)nn1)c1ccc(F)cc1 (stereo not drawn) [Compound 42b]",
    "target system": "hepatocellular carcinoma (HepG2) cells",
    "IC50 (µM)": 38
  }
]

1 = OC(Cn1cc(Cn2ccc3ccccc32)nn1)c1ccc(Br)cc1 (stereo not drawn) [Compound 29b]
2 = OCC(c1ccc(Br)cc1)n1cc(Cn2cnc3c(Cl)ncnc32)nn1 (stereo not drawn) [Compound 39a]
3 = O=c1[nH]cc(F)c(=O)[nH]1 [Compound 5-FU, 5-Fluorouracil, reference compound]
4 = OC(Cn1cc(Cn2cnc3c(Cl)nccc32)nn1)c1ccc(Br)cc1 (stereo not drawn) [Compound 49b]
Problem: Please order the records by their reported IC50, lowest number first. # list labels per requested ordering
Result: 4, 3, 2, 1
(4: 4 µM, 3: 9 µM, 2: 16 µM, 1: 35 µM)

A = O[C@@H](Cn1cc(Cn2ccc3c(Cl)ncnc32)nn1)c1ccc(Cl)cc1 [Compound (R)-43b]
B = O[C@H](Cn1cc(Cn2cnc3c(Cl)ncnc32)nn1)c1ccc(F)cc1 [Compound (S)-37b]
Problem: Please let me know which one, A or B , has a lower measured IC50 value. Your answer should be the label attached to the chosen record.
Result: A

###

test system: hepatocellular carcinoma (HepG2) cells; test: Antiproliferative MTT assay, HepG2; format: cell-based, human; settings: SI = [IC50 HFF]/[IC50 HepG2]
quantity name: SI (HepG2)
Number only, please.

[
  {
    "molecule": "OCC(c1ccc(C(F)(F)F)cc1)n1cc(Cn2cnc3c(Cl)ncnc32)nn1 (centres unmarked) [Compound 40a]",
    "quantity name": "SI (HepG2)",
    "endpoint value": 28.1
  }
]

Problem: SI (HepG2) for O[C@@H](Cn1cc(Cn2cnc3c(Cl)ncnc32)nn1)c1ccc(C(F)(F)F)cc1 [Compound (R)-40b] ?
Result: 0.7

Problem: Data request, read-out SI (HepG2), for O=c1[nH]cc(F)c(=O)[nH]1 [Compound 5-FU, 5-Fluorouracil, reference compound]
Result: 0.1

Problem: Request the reported SI (HepG2) associated with OCC(c1ccc(Br)cc1)n1cc(Cn2cnc3c(Cl)nccc32)nn1 (centres unmarked) [Compound 49a]
Result: 1.4

Problem: Given the molecule O[C@@H](Cn1cc(Cn2cnc3c(Cl)ncnc32)nn1)c1ccc(F)cc1 [Compound (R)-37b] , what is its reported SI (HepG2)?
Result: 0.6

Problem: Query (molecule): O[C@@H](Cn1cc(Cn2cnc3c(Cl)ncnc32)nn1)c1ccc(Cl)cc1 [Compound (R)-38b] ; field requested: SI (HepG2)
Result: 0.8

Problem: Record request: SI (HepG2) value, item OC(Cn1cc(Cn2cnc3c(Cl)nccc32)nn1)c1ccc(F)cc1 (centres unmarked) [Compound 47b]
Result: 0.3

Problem: What SI (HepG2) value was documented for this molecule, OC(Cn1cc(Cn2cnc3c(Cl)ncnc32)nn1)c1ccc(C(F)(F)F)cc1 (centres unmarked) [Compound 40b] ?
Result: 0.5

Problem: Entry O[C@H](Cn1cc(Cn2cnc3c(Cl)ncnc32)nn1)c1ccc(F)cc1 [Compound (S)-37b] has what SI (HepG2)?
Result: 1.6

Problem: Which SI (HepG2) value is on record for OCC(c1ccc(F)cc1)n1cc(Cn2cnc3c(Cl)ncnc32)nn1 (centres unmarked) [Compound 37a] ?
Result: 1.7

Problem: Item under review: O[C@H](Cn1cc(Cn2cnc3c(Cl)ncnc32)nn1)c1ccc(Cl)cc1 [Compound (S)-38b] . Reported SI (HepG2)?
Result: 2.9

###

tested on: P-glycoprotein (human MDR1); assay: MDCKII-MDR1 permeability assay; assay type: in vitro ADME, canine cells with over-expressed human MDR1 gene; conditions: dog, MDCK-MDR1; 10 µM, 60 min, 37 °C
quantity name: Papp A→B at 60 min, 10 µM (×10⁻⁶ cm/s)

Solved cases (2 shown):
[
  {
    "molecule": "OCC(c1ccc(Br)cc1)n1cc(Cn2ccc3ccccc32)nn1 (centres unmarked) [Compound 29a]",
    "result units": "×10⁻⁶ cm/s",
    "endpoint value": 10
  },
  {
    "molecule": "OCC(c1ccc(C(F)(F)F)cc1)n1cc(Cn2cnc3c(Cl)ncnc32)nn1 (centres unmarked) [Compound 40a]",
    "result units": "×10⁻⁶ cm/s",
    "endpoint value": 2.1
  }
]

A = O[C@@H](Cn1cc(Cn2cnc3c(Cl)ncnc32)nn1)c1ccc(C(F)(F)F)cc1 [Compound (R)-40b]
B = OC(Cn1cc(Cn2ccc3ccccc32)nn1)c1ccc(Br)cc1 (centres unmarked) [Compound 29b]
Problem: // task: argmin of Papp A→B at 60 min, 10 µM over [ A , B ] Select an item and report its label.
Result: A
(A: 2.2 ×10⁻⁶ cm/s, B: 18.3 ×10⁻⁶ cm/s)

###

system: P-glycoprotein (human MDR1); assay: MDCKII-MDR1 permeability assay; type: in vitro ADME, canine cells with over-expressed human MDR1 gene; conditions: dog, MDCK-MDR1; 10 µM, 60 min, 37 °C
quantity name: Papp A→B at 60 min, 10 µM (×10⁻⁶ cm/s)

[
  {
    "compound": "O[C@H](Cn1cc(Cn2cnc3c(Cl)ncnc32)nn1)c1ccc(C(F)(F)F)cc1 [Compound (S)-40b]",
    "target system": "P-glycoprotein (human MDR1)",
    "Papp A→B at 60 min, 10 µM (×10⁻⁶ cm/s)": 2.2
  },
  {
    "compound": "OC(Cn1cc(Cn2ccc3c(Cl)ncnc32)nn1)c1ccc(C(F)(F)F)cc1 (stereo not drawn) [Compound 45b]",
    "target system": "P-glycoprotein (human MDR1)",
    "Papp A→B at 60 min, 10 µM (×10⁻⁶ cm/s)": 26.5
  },
  {
    "compound": "OC(Cn1cc(Cn2cnc3ccccc32)nn1)c1ccc(Br)cc1 (stereo not drawn) [Compound 34b]",
    "target system": "P-glycoprotein (human MDR1)",
    "Papp A→B at 60 min, 10 µM (×10⁻⁶ cm/s)": 4.3
  },
  {
    "compound": "OC(Cn1cc(Cn2cnc3c(Cl)ncnc32)nn1)c1ccc(Br)cc1 (stereo not drawn) [Compound 39b]",
    "target system": "P-glycoprotein (human MDR1)",
    "Papp A→B at 60 min, 10 µM (×10⁻⁶ cm/s)": 3.1
  },
  {
    "compound": "OCC(c1ccc(Br)cc1)n1cc(Cn2ccc3c(Cl)ncnc32)nn1 (stereo not drawn) [Compound 44a]",
    "target system": "P-glycoprotein (human MDR1)",
    "Papp A→B at 60 min, 10 µM (×10⁻⁶ cm/s)": 10.9
  }
]

I = OCC(c1ccc(C(F)(F)F)cc1)n1cc(Cn2ccc3c(Cl)ncnc32)nn1 (stereo not drawn) [Compound 45a]
II = OC(Cn1cc(Cn2ccc3c(Cl)ncnc32)nn1)c1ccc(Br)cc1 (stereo not drawn) [Compound 44b]
Problem: Compare Papp A→B at 60 min, 10 µM: is it lower for I or for II ? Lab log: write the label of the selected item as the result.
Result: I

###

system: colorectal carcinoma (HT-29) cells; assay: Antiproliferative MTT assay, HT-29; assay type: cell-based, human; settings: Homo sapiens, HT-29, 72 h, 72 h incubation, MTT; mean ± SD
pIC50: −log10 of the molar value.
quantity name: pIC50

Use the examples below as a reference point.
[
  {
    "compound": "OC(Cn1cc(Cn2cnc3ccccc32)nn1)c1ccc(C(F)(F)F)cc1 (stereo not drawn) [Compound 35b]",
    "pIC50": 4.17
  },
  {
    "compound": "O[C@@H](Cn1cc(Cn2cnc3c(Cl)ncnc32)nn1)c1ccccc1 [Compound (R)-36b]",
    "pIC50": 4.07
  },
  {
    "compound": "OC(Cn1cc(Cn2cnc3ccccc32)nn1)c1ccc(Br)cc1 (stereo not drawn) [Compound 34b]",
    "pIC50": 4.15
  }
]

A = OC(Cn1cc(Cn2cnc3c(Cl)ncnc32)nn1)c1ccc(Cl)cc1 (stereo not drawn) [Compound 38b]
B = O[C@@H](Cn1cc(Cn2ccc3c(Cl)ncnc32)nn1)c1ccc(F)cc1 [Compound (R)-42b]
Problem: Would you kindly point out which of A and B has the smaller pIC50 figure? Your choice should be expressed through its label.
Result: A
(A: 4.25, B: 4.57)
